experiment: Accelerated stability test; format: physicochemical; settings: storage 75% relative humidity; Month 1; 40°C ± 2°C, relative humidity 75% ± 5%; read-out: Content
Property: remaining at 730 h; scope: individual molecules
Please answer using a numeric value trailed by its unit.

// solved cases for remaining at 730 h follow
O=C1Cc2ccccc2C(=C2CCN(CCOCOP(=O)(O)O)CC2)c2ccsc21 [Compound IV-6] :: 99.7%
O=C1Cc2ccccc2C(=C2CCN(CCCCOP(=O)(O)O)CC2)c2ccsc21 [Compound IV-4] :: 99.7%

// query Identify measured remaining at 730 h corresponding to O=C1Cc2ccccc2C(=C2CCN(CCCCOCOP(=O)(O)O)CC2)c2ccsc21 [Compound IV-8]
// result 99.7%

----------
assay: Accelerated stability test; assay type: physicochemical; details: Month 1; 40°C ± 2°C, relative humidity 75% ± 5%
Listing: Related substances of selected molecules
Express the result in % but write the number alone.

Worked set:
O=C1Cc2ccccc2C(=C2CCN(CCCOP(=O)(O)O)CC2)c2ccsc21 [Compound IV-3] :: 0.05
O=C1Cc2ccccc2C(=C2CCN(CCCOCOP(=O)(O)O)CC2)c2ccsc21 :: 0.05
O=C1Cc2ccccc2C(=C2CCN(CCOP(=O)(O)O)CC2)c2ccsc21 :: 0.04

// query Tell us which Related substances value is on record for "O=C1Cc2ccccc2C(=C2CCN(CCCCOP(=O)(O)O)CC2)c2ccsc21"
// result 0.05

// query Complete the entry with Related substances for O=C1Cc2ccccc2C(=C2CCN(CCCOP(=O)(O)O)CC2)c2ccsc21 [Compound III-3]
// result 0.05

// query In one line, give reported Related substances of the entry "O=C1Cc2ccccc2C(=C2CCN(CCOCOP(=O)(O)O)CC2)c2ccsc21" .
// result 0.05

// query Please give the documented Related substances of "O=C1Cc2ccccc2C(=C2CCN(COP(=O)(O)O)CC2)c2ccsc21"
// result 0.05

// query Provide measured Related substances value, entry: "O=C1Cc2ccccc2C(=C2CCN(CCCCOCOP(=O)(O)O)CC2)c2ccsc21"
// result 0.04

----------
Measured Related substances, listed per entry.
experiment: Accelerated stability test; type: physicochemical; conditions: Month 3; 40°C ± 2°C, relative humidity 75% ± 5%
Number in %, nothing else.

Illustrative cases are given below, each with its answer.
O=C1Cc2ccccc2C(=C2CCN(CCOCOP(=O)(O)O)CC2)c2ccsc21 [Compound IV-6] :: 0.12
O=C1Cc2ccccc2C(=C2CCN(CCOP(=O)(O)O)CC2)c2ccsc21 [Compound IV-2] :: 0.06
O=C1Cc2ccccc2C(=C2CCN(CCCOP(=O)(O)O)CC2)c2ccsc21 [Compound III-3] :: 0.15
O=C1Cc2ccccc2C(=C2CCN(CCCOP(=O)(O)O)CC2)c2ccsc21 [Compound IV-3] :: 0.12

// query Respond only with Related substances recorded for O=C1Cc2ccccc2C(=C2CCN(CCCCOP(=O)(O)O)CC2)c2ccsc21 [Compound IV-4]
// result 0.12

// query Give me measured Related substances, please, for this molecule: O=C1Cc2ccccc2C(=C2CCN(CCCOCOP(=O)(O)O)CC2)c2ccsc21 [Compound III-7]
// result 0.15

// query State, in one line, measured Related substances of O=C1Cc2ccccc2C(=C2CCN(CCCCOCOP(=O)(O)O)CC2)c2ccsc21 [Compound IV-8]
// result 0.06

// query Could you please provide reported Related substances for O=C1Cc2ccccc2C(=C2CCN(COP(=O)(O)O)CC2)c2ccsc21 [Compound IV-1] ? Thanks!
// result 0.12
